Test system: transient receptor potential cation channel C4 beta (TRPC4), mouse
Assay: TRPC4 cation channel opening, second retest – cell-based, second round, Fluo4, HEK293 TRPC4beta/mu-opioid, 1 µM, confirmation (AID 2461)
Details: Fluo4 calcium fluorescence, at 1 µM
Active and inactive are the calls of the source.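 Rule for the calls: active = primary screen active and over 50% activation in each of two duplicate runs; inactive = the rest.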
# valid calls are t = active, f = inactive; nothing else

Would you please look over these solved cases?
CCCCn1c(NCCO)nc2ccccc21 = f
COc1ccc(C(=O)NNC(=S)NC(=O)c2cccs2)cc1 = f
NCCc1nnc(SCc2ccccc2)o1 = f
Cc1cc(Nc2cccc(O)c2)c2ccccc2n1 = f
CCC(C)NCCOCCOc1ccccc1-c1ccccc1 (stereo unspecified) = f

Recorded test call requested for CN(C)CCCNc1ncnc2c1cnn2Cc1ccccc1Cl
f

Record request — test call for O=C(N/N=C/c1ccco1)C1COc2ccccc2O1 (stereo unspecified)
f
